- STUDY TARGET: CDK2/Cyclin E1 (Homo sapiens, UniProt P24941)
- ASSAY EXPLANATION: CDK2/Cyclin E1 Biochemical Assay (TR-FRET), 0.060 mM ATP
- STUDY CONDITIONS: 0.15 μM Rb (Ser780)-biotin substrate, pH7.0, 60 min preincubation, 120 min reaction, room temperature
OUTCOME MEASURE: IC50 (nM)
Answers are plain numbers, in nM.

Recorded IC50, per entry:
CC(C)NC(=O)O[C@H]1CC[C@@H](c2cc(Nc3ccc4c(c3F)CS(=O)(=O)N4C3COC3)n[nH]2)C1 (single isomer, unassigned) [Example 259b] ... 3
O=C(NC1CCCC1)O[C@H]1CC[C@@H](c2cc(Nc3ccc4c(c3)CS(=O)(=O)N4)n[nH]2)C1 (single isomer, unassigned) [Example 381a] ... 1.2

Now, please, on to the next molecule.
Ask | Could you tell me which IC50 is on file for CC(C)NC(=O)O[C@H]1CC[C@@H](c2cc(Nc3ccc4c(c3F)CN(CC3CN(C)C3)S4(=O)=O)n[nH]2)C1 (relative stereo) ?
Reply | 6
